System: SNB-19 CNS
Assay: NCI-60 one-dose screen, 48 h (100 = growth as untreated, 0 = no growth, -100 = all killed)
Details: 10 µM unless noted
About 83,000 compounds went through this panel and 20% of them were active in at least one assay; those are over-represented in the sample as a whole.
List of growth values.
PROPERTY_MEASURED: growth (%)

>>> df
                                   molecule  obs_value
0     O=C(/C(=N/O)S(=O)(=O)c1ccccc1)c1cccs1        100
1  COc1cc2c(cc1OC)C1CCN3C(=O)CCC3N1CC2 (centres undefined)        111
2  O=c1ccn(C2OC(CO)C(O)C2F)c(=O)[nH]1 (centres undefined)        101
3  O=C(Nc1ccc(Oc2ccc(NC(=O)Nc3ccc([N+](=O)[O-])cc3)cc2)cc1)Nc1ccc([N+](=O)[O-])cc1       29.7
4  COC(=O)[C@]12CC[C@@H](C)[C@H](C)[C@@H]1C1=CC[C@@H]3[C@@]4(C)C=C(O)C(=O)[C@@]5(C)COC(=C54)C[C@@]3(C)[C@]1(C)CC2      -26.5
5           CCCCN(CCCC)CCCOC(=O)c1ccc(N)cc1       88.7
6  Nc1nc(SCc2ccccc2Cl)c(-c2ccccc2)c(SCc2ccccc2Cl)n1        116
7  COc1ccc(-c2cn(-c3ccccc3)c(-c3ccccc3)n2)cc1OC        117
8  COc1cc(C2NC(c3ccc(Cl)cc3)C(C)/C(=N/NC(N)=S)C2C)cc(OC)c1OC (centres undefined)       78.2
